Give measured Inhibition for each item. Keep answers brief.
# System: Candida albicans
# experimental-context: 32 ug/mL
# Description: Antifungal activity against Candida albicans ATCC 90028 (CO-ADD:FG_001); MIC in YNB media using NBS plates, by OD630
Potency and affinity values are given separately.
Give bare numbers, in %.

Fill in Inhibition for record O=[N+]([O-])c1ccc(-c2ccccc2Nc2ccccc2Br)cc1
4.47

Fill in Inhibition for record N#Cc1ccc(-c2ccccc2Nc2ccccc2)cc1
10.8

Fill in Inhibition for record COc1cccc(N(C)c2cccc(OC)c2-c2ccc([N+](=O)[O-])cc2C)c1
3.58

For each of the compounds below, note its Inhibition.
1. Cc1ccccc1Nc1ccccc1-c1ccc([N+](=O)[O-])cc1
2. c1ccc(Nc2ccccc2-c2ncccn2)cc1

1: -0.09; 2: 12.1

Fill in Inhibition for record COc1cccc(Nc2ccccc2)c1-c1c(Cl)cc(Br)cc1Cl
23.8
